Listed below: normalized growth values for each entry.
# testMethodNotes: chemical genetic growth profiling, strain panel (AID 1159580);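 further: tested at 20 µM; growth read once vehicle control cultures reached saturation at 30 °C; 1 = growth at the plate median or of vehicle wells; lower values mean less growth of the strain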
# conditionSummary: S. cerevisiae deletion strains, growth OD, locus YPL240C, strain hsp82, active compounds read low
The campaign covered roughly 5,500 compounds. About 2,000 (36%) were called active. Roughly 18% stayed inconclusive and do not appear here. This is one part of the list.

{"compound": "O=C(Oc1cccc2cccnc12)c1ccccc1", "normalized growth": "0.965 (inactive)"}
{"compound": "Cc1ccc(-c2nc3ccc(C)cn3c2CC(=O)N(C)C)cc1", "normalized growth": "0.982 (inactive)"}
{"compound": "COC(=O)NC(=S)Nc1ccccc1NC(=S)NC(=O)OC", "normalized growth": "1 (inactive)"}
{"compound": "CCC(=O)OCC(=O)C1(OC(=O)CC)C(C)CC2C3CCC4=CC(=O)C=CC4(C)C3(Cl)C(O)CC21C (stereo not given)", "normalized growth": "0.976 (inactive)"}
{"compound": "OC1(c2ccc(Cl)c(C(F)(F)F)c2)CCN(CCCC(c2ccc(F)cc2)c2ccc(F)cc2)CC1", "normalized growth": "0.0596 (active)"}
{"compound": "C[C@H]1[C@H](C)CC[C@]2(C(=O)O)CC[C@]3(C)C(=CCC4[C@@]5(C)C[C@@H](O)[C@H](O)[C@@](C)(CO)C5CC[C@]43C)[C@H]12 (stereo not given in full)", "normalized growth": "1.03 (inactive)"}
{"compound": "CC1(C)Oc2ccc3ccc(=O)oc3c2CC1O (stereo not given)", "normalized growth": "0.974 (inactive)"}
{"compound": "COc1cc(-c2cc(=O)c3c(O)c(OC)c(OC)c(OC)c3o2)cc(OC)c1OC", "normalized growth": "1.01 (inactive)"}
{"compound": "CCC(=O)OCC(=O)C1(OC(=O)CC)C(C)CC2C3C(Cl)CC4=CC(=O)C=CC4(C)C3C(O)CC21C (stereo not given)", "normalized growth": "1.02 (inactive)"}
{"compound": "COC1C(O)C(O[C@H]2CC[C@]3(C=O)C4C(CC[C@]3(O)C2)[C@@]2(O)CC[C@H](C3=CC(=O)OC3)[C@@]2(C)C[C@H]4OC(C)=O)OC(C)C1OC(C)=O (stereo not given in full)", "normalized growth": "1.01 (inactive)"}
{"compound": "COc1ccc(-c2cc(=O)c3c(O)c(OC)c(O[C@H]4O[C@H](CO[C@@H]5O[C@@H](C)[C@H](O)[C@@H](O)[C@H]5O)[C@@H](O)[C@H](O)[C@H]4O)cc3o2)cc1", "normalized growth": "0.995 (inactive)"}
{"compound": "NS(=O)(=O)c1cc2c(cc1C(F)(F)F)NC(Cc1ccccc1)NS2(=O)=O (stereo not given)", "normalized growth": "0.998 (inactive)"}
{"compound": "NC[C@H]1O[C@H](OC2[C@@H](N)C[C@@H](N)[C@H](O[C@H]3O[C@H](CO)[C@@H](O)[C@H](N)[C@H]3O)[C@H]2O)[C@H](O)[C@@H](O)[C@@H]1O (stereo not given in full)", "normalized growth": "0.987 (inactive)"}
{"compound": "CC1(C)S[C@@H]2C(N3C(=O)[C@@H](c4ccccc4)NC3(C)C)C(=O)N2[C@H]1C(=O)O (stereo not given in full)", "normalized growth": "0.985 (inactive)"}
{"compound": "O=C(CCCN1CCN(c2ccccn2)CC1)c1ccc(F)cc1", "normalized growth": "0.985 (inactive)"}
{"compound": "C[C@H]1O[C@@H](O[C@H]2[C@@H](O)C[C@H](O[C@H]3[C@@H](O)C[C@H](O[C@H]4CC[C@]5(C)C6CC[C@]7(C)[C@@H](C8=CC(=O)OC8)CC[C@]7(O)C6CC[C@@H]5C4)O[C@@H]3C)O[C@@H]2C)C[C@H](O)[C@@H]1O (stereo not given in full)", "normalized growth": "0.999 (inactive)"}
{"compound": "COc1ccc(-c2cc(=O)c3c(O)c(OC)c(OC)c(OC)c3o2)cc1OC", "normalized growth": "1.03 (inactive)"}
{"compound": "O=C1CC2(CCCC2)CC(=O)N1CCCCN1CCN(c2ncccn2)CC1", "normalized growth": "1.01 (inactive)"}
{"compound": "COC(=O)C[C@H]1C(C)(C)[C@@H](O)[C@@H]2CC3=C4CC(O)O[C@@H](c5ccoc5)[C@]4(C)CCC3[C@@]1(C)C2=O (stereo not given in full)", "normalized growth": "1.01 (inactive)"}
{"compound": "CC(=O)OC1CC[C@@]2(C)C(CCC3C2CC[C@]2(C)C(C4=CC(=O)OC4)C(OC(C)=O)CC32O)C1 (stereo not given in full)", "normalized growth": "0.982 (inactive)"}
